# test_target: C3aR (Homo sapiens)
# Sequence (Q16581 whole entry): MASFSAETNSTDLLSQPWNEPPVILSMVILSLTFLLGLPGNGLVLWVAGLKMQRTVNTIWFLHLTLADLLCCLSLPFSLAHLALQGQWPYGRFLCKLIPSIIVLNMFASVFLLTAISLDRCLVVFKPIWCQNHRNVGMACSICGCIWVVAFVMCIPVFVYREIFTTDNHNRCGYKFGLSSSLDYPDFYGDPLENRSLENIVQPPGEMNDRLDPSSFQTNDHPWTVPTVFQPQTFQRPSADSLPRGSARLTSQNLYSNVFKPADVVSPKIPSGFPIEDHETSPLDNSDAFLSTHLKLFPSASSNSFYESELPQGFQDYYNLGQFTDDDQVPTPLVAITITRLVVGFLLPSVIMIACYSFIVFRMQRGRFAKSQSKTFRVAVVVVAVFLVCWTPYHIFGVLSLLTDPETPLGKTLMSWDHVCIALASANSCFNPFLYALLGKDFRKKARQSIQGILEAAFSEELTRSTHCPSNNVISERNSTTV
# test_details: Intracellular Ca2+ release in human monocyte-derived macrophages (agonist mode)
# Type: cell-based
# Design: Concentration-dependent Ca^2+ release in human monocyte-derived macrophages (HMDMs); endogenous in cells; host or cells: primary human monocyte-derived macrophages (HMDMs)
# condition_info: HMDMs, n ≥ 3, ± SEM
readout: EC50 (nM)

A: Cc1sc(C(c2ccccc2)c2ccccc2)nc1C(=O)N[C@@H](CCCNC(=N)N)C(=O)O
B: N=C(N)NCCC[C@H](NC(=O)c1csc(C(c2ccccc2)c2ccccc2)n1)C(=O)O
C: Cc1[nH]c(C(c2ccccc2)c2ccccc2)nc1C(=O)N[C@@H](CCCNC(=N)N)C(=O)O
Q) Give the descending EC50 ranking for the 3 compounds listed above. // list labels; follow requested order
A) A, B, C
